Target: SARS-CoV-2 Spike protein (SARS-CoV-2 Wuhan-Hu-1, UniProt P0DTC2 14-1273)
Assay: cell-based or functional assay
readout_name: neutralization IC80 (µg/mL)
The figure you give is taken to be in µg/mL; do not add the unit.

S2D22 (antibody, V domains shown) VH: EVHLVESGGGLVQPGGSLKLSCAASGFTFSGSAMHWVRQASGKGLEWVGRIRTKANTYATAYAASVKGRFTISRDDSKNTAYLQMNSLKTEDTAVYYCTRPAPYDFLSDYYTGEQLDYWGQGTLVTVSS VL: QSVLTQPPSVSGAPGQRVTISCTGSSSNIGAGYDVHWYQQLPGAAPKLLIYGNSNRPSGVPDRFSGSKSGTSASLAITGLQAEDEADYYCQSYDSSLSGPEVFGTGTKVTVL :: 3.28
S2D32 (antibody, V domains shown) VH: EVQLVESGGGLVQPGRSLRLSCTSSGFTFGDYPMSWFRQAPGKGLEWVGFIRSKAYGGTTQYAASVKGRFTISRDDSKNIAYLQMNSLKTEDTAVYYCTREMWDCSGGRCYSPFFDYWGQGTLVTVSS VL: EIVMTQSPATLSVSPGERATLSCRASQTVSSNLAWYQQKPGQAPRLLIYGASTRATGIPARFSGSGSGTEFTLTISSLQSEDFAVYYCQQYNNWRTFGQGTKLEIK :: 0.081
S2D8 (antibody, V domains shown) VH: EVQLLESGGGLVQPGGSLRLSCAASGFTFTTYAMSWVRQAPGKGLEWVSGISGSGGNTYHADSVKGRFTISRDNSKSTLYLQMNSLRAEDTAVYYCAKDLWFREILHGMDVWGEGTTVTVSS VL: QSALTQPASVSGSPGQSITISCTGTSSDIGGYNYVSWYQHHPGKAPKIMIYEVTNRPSGVSNRFSGSKSGNTASLTISGLQAEDEADYYCSSYTSSNTYVFGTGTKVTVL :: 0.058

**Query** Write down neutralization IC80 measured for item S2D25 (antibody, V domains shown) VH: EVQLVESGGGLVQPGGSLRLSCAASGFPFNIYAMSWVRQAPGKGLEWVSGISGSGGSTYYADSVRGRFAISRDNSKNTLYLQMNSLRAEDTAEYYCAKDLWFREILHGMDVWGKGTTVTVSS VL: QSALTQPASVSGSPGQSITISCTGTSSDVGGYNYVSWYQHHPGRAPKLMIYEVSNRPSGVSNRFSGSKSGNTASLSISGLQAEDEADYYCSSYTSSSTYVFGAGTKVTVL
**Result** 0.091
